organism: Rattus norvegicus; test: Open TG-GATES - Regimen: Daily Repeat; assay type: toxicity, organism-based, Sprague-Dawley; parameters: regimen Daily Repeat, gender Male, age 6 weeks; conditions: in vivo, po, 1000 mg/kg, […], tissue Plasma, route gavage, dose level High, time 28 day
If the reported RALB equals or exceeds 3 g/dL, assign satisfied. If not, assign not satisfied.

Examples from the recorded data:
| COMPOUND | LABEL VALUE |
| --- | --- |
| CNC(=C[N+](=O)[O-])NCCSCc1ccc(CN(C)C)o1 [RANITIDINE] | satisfied |
| O=C(OC[C@H]1O[C@@H](OC(=O)c2cc(O)c(O)c(OC(=O)c3cc(O)c(O)c(O)c3)c2)[C@H](OC(=O)c2cc(O)c(O)c(OC(=O)c3cc(O)c(O)c(O)c3)c2)[C@@H](OC(=O)c2cc(O)c(O)c(OC(=O)c3cc(O)c(O)c(O)c3)c2)[C@@H]1OC(=O)c1cc(O)c(O)c(OC(=O)c2cc(O)c(O)c(O)c2)c1)c1cc(O)c(O)c(OC(=O)c2cc(O)c(O)c(O)c2)c1 [TANNIC ACID] | satisfied |
| CN/C(=N/CCSCc1nc[nH]c1C)NC#N [CIMETIDINE] | satisfied |
| COC(=O)C1=C(C)NC(C)=C(C(=O)OC)C1c1ccccc1[N+](=O)[O-] [NIFEDIPINE] | not satisfied |

Given Cc1nnc2n1-c1ccc(Cl)cc1C(c1ccccc1Cl)=NC2 [TRIAZOLAM] , state whether its RALB is at least 3 g/dL.
not satisfied

Given CCOc1ccc(NC(C)=O)cc1 [PHENACETIN] , state whether its RALB is at least 3 g/dL.
not satisfied

====

species: Rattus norvegicus; assay: Open TG-GATES - Regimen: Single; assay type: toxicity, organism-based, Sprague-Dawley; design: regimen Single, gender Male, age 6 weeks; details: in vivo, po, 0 mg/kg, 6 h, tissue Blood, route gavage, dose level Control
PROPERTY NAME: PT (s)
Numbers only, in s.

Previously resolved entries follow.
| COMPOUND | UNIT LABEL | PT |
| --- | --- | --- |
| CN1C(=O)CCS(=O)(=O)C1c1ccc(Cl)cc1 (configuration not stated) | s | 13.2 |
| CN/C(=N/CCSCc1nc[nH]c1C)NC#N | s | 12.8 |
| CNC(=C[N+](=O)[O-])NCCSCc1ccc(CN(C)C)o1 | s | 12.2 |
| COC(=O)C1=C(C)NC(C)=C(C(=O)OC)C1c1ccccc1[N+](=O)[O-] | s | 15 |
| CCCc1cc(=O)[nH]c(=S)[nH]1 | s | 12.6 |
| O=C(OC[C@H]1O[C@@H](OC(=O)c2cc(O)c(O)c(OC(=O)c3cc(O)c(O)c(O)c3)c2)[C@H](OC(=O)c2cc(O)c(O)c(OC(=O)c3cc(O)c(O)c(O)c3)c2)[C@@H](OC(=O)c2cc(O)c(O)c(OC(=O)c3cc(O)c(O)c(O)c3)c2)[C@@H]1OC(=O)c1cc(O)c(O)c(OC(=O)c2cc(O)c(O)c(O)c2)c1)c1cc(O)c(O)c(OC(=O)c2cc(O)c(O)c(O)c2)c1 | s | 12.1 |

Turning now to a further compound:
Quick one: give measured PT for "CC(C)NNC(=O)c1ccncc1"
15.6
